# growth values compiled below
test system: ACHN renal; assay: NCI-60 one-dose screen, 48 h (100 = growth as untreated, 0 = no growth, -100 = all killed); settings: 10 µM unless noted
This is part of a sample that, as a whole, favours compounds with a hit. Of some 83,000 tested, about 20% had one in any assay.
Please respond with the number in % and leave the unit unwritten.

CC(NC(=O)c1ccccc1)C(=O)Nc1ccccc1 (stereo not drawn) ... 103
O=c1c2cc(Br)cc(Br)c2nc(-c2ccc(Cl)cc2)n1/N=C/c1cccc(F)c1 ... 10.8

Requested field: growth. Item: "CCN(CCC#N)c1ccccc1" 112

Then what about the compound "CC(C)c1cccc(C#N)c1" ? 115

Then what about the compound "COc1ccc(Cl)cc1Nc1nc(C(F)(F)F)ccc1C(=O)NN" ? 6.99

Then what about the compound "C#C[C@]1(O)CC[C@H]2[C@@H]3CC=C4c5sc(-c6cccc(Br)c6)nc5CC[C@]4(C)[C@H]3CC[C@@]21C" ? 83.3

* * *

# growth values compiled below
system: EKVX NSCLC; experiment: NCI-60 one-dose screen, 48 h (100 = growth as untreated, 0 = no growth, -100 = all killed); conditions: 10 µM unless noted
About 83,000 compounds went through this panel and 20% of them were active in at least one assay; those are over-represented in the sample as a whole.
Please respond with the number in % and leave the unit unwritten.

The cases that follow already have their growth on record.
CCN1C(=O)N(CC)C2C1NN=c1s/c(=C\c3ccco3)c(=O)n12 (stereo not given) ... 36.3
CC(C)[C@@]12C[C@@H](OC(=O)[C@H]3CO3)[C@@](C)(O1)[C@@H]1CC[C@@H](C)[C@H]1[C@@H]2OC(=O)/C=C/c1ccccc1 ... 71.9
O=C(Nc1ccncc1)C(=O)c1cn(S(=O)(=O)c2cccc(Cl)c2F)c2ccccc12 ... 59.2
CCCCCCCOc1cccc(/C=C2\N=C3SCCCN3C2=O)c1 ... 92.7

Please turn your attention to the following entry.
Quick check: growth on EKVX NSCLC, item "Clc1cccc(CNc2c3ccccc3nc3ccccc23)c1" ? 27.2

* * *

test system: OVCAR-3 ovarian; assay: NCI-60 one-dose screen, 48 h (100 = growth as untreated, 0 = no growth, -100 = all killed); conditions: 10 µM unless noted
About 83,000 compounds went through this panel and 20% of them were active in at least one assay; those are over-represented in the sample as a whole. Activity calls are given as the source filed them. Rule for the calls: active = growth percent below 10; inactive = the rest.
METRIC_NAME: growth

The cases that follow already have their growth on record.
CCN(CC)c1cc(C)c(Cc2c(OC)ccc3ccccc23)cc1C ... 106% (inactive)
COc1ccc(-c2cnnn2-c2nonc2-n2cccc2)cc1 ... -38.9% (active)
COc1cc(OC)c(C(=O)/C=C/c2cccc(OC(C)=O)c2)cc1CC=C(C)C ... 37.7% (inactive)
O=C1/C(=C/c2ccccc2)SC(=Nc2ccccc2)N1Nc1ccccc1 ... -5.68% (active)
Nc1c(Br)cc2c(c1Br)Cc1cc(Cl)ccc1-2 ... 104% (inactive)

Requested field: growth. Item: Oc1c(C(Nc2ccccc2Br)c2ccccc2)ccc2cccnc12 (centres undefined) 32.8% (inactive)

Then what about the molecule "O=C(NCCN1CCCCC1)n1cc(-c2ccncc2)c(-c2ccc(Cl)c(O)c2)n1" ? 113% (inactive)

* * *

tested on: HOP-62 NSCLC; test: NCI-60 one-dose screen, 48 h; conditions: 10 µM unless noted
Compounds without any hit were thinned out: in the full panel of roughly 83,000, 20% have a hit. Activity calls are given as the source filed them. How the source made its calls: active means growth percent below 10; inactive means the rest.
Pick one and only one: active, inactive

CCN(CCC#N)c1ccccc1 ... inactive
COc1ccc(C2c3cccn3-c3ccccc3N2C(C)=O)cc1 (stereo not given) ... inactive
COc1ccc(N=C2CSc3nnc(-c4cc(F)c(Cl)cc4Cl)n3N2)cc1 ... active
CC1(C)CN(CCNc2nccc(-c3c(-c4cccc(O)c4)nc4sccn34)n2)S(=O)(=O)N1 ... inactive

Hi, sorry to bother you, what did the test record for "CCOCCNc1ccc(S(=O)(=O)c2ccc(N)cc2)cc1N" ? inactive

Then what about the compound COc1cc(CN2CCC(N3CCCC3=O)c3ccccc32)cc(OC)c1OC (stereo not given) ? inactive

Then what about the compound "Clc1ccc(-c2nc(-c3cccs3)no2)cc1" ? inactive

Then what about the compound N/C(=N\OC(=O)c1ccccc1)C(Cc1ccccc1)C(=O)NOC(=O)c1ccccc1 (stereo not given) ? active

Then what about the compound "O=C(CCCCCCN1CC(=O)N2[C@@H](c3ccc(Cl)c(Cl)c3)c3[nH]c4ccccc4c3C[C@H]2C1=O)NO" ? inactive

Then what about the compound CC1=CC(=O)OC1C/C=C(\C)CCC1[C@@]2(C)CCC[C@@](C)(C(=O)O)C2CC[C@@]1(C)O (stereo not given in full) ? inactive

Then what about the compound "CCN(CC)c1ccc(/C=N/NC(=O)c2ccc(S(C)(=O)=O)cc2)c(O)c1" ? inactive

Then what about the compound CCN1C(=O)N(CC)C2C1NN=c1s/c(=C\c3ccco3)c(=O)n12 (stereo not given) ? inactive

Then what about the compound "CCCCCCCCCCCCNC(=O)N[C@H](C(=O)N[C@H]1/C=C/CCNC(=O)/C=C/[C@H](C)NC1=O)C(C)C" ? active

* * *

system: 786-0 renal; assay: NCI-60 one-dose screen, 48 h (100 = growth as untreated, 0 = no growth, -100 = all killed); details: 10 µM unless noted
Compounds without any hit were thinned out: in the full panel of roughly 83,000, 20% have a hit.
# growth values compiled below
Please respond with the number in % and leave the unit unwritten.

The cases that follow already have their growth on record.
COc1ccc(NC(=O)Cn2c(=O)sc3c(-c4ccc(Cl)cc4)cc(-c4ccc(Cl)cc4)nc32)cc1 ... 88.7
O=c1c2cc(Br)cc(Br)c2nc(-c2ccc(Cl)cc2)n1/N=C/c1cccc(F)c1 ... 9.97
Cc1c2c(cc3c1[nH]c1ccccc13)C=NCC2 ... 80.8
COc1cc(-c2nn(C(=O)NCCN3CCN(C)CC3)cc2-c2ccncc2)ccc1Cl ... 59.3
Clc1cc2nc(-c3ccccc3)c(-c3ccccc3)nc2cc1Cl ... 103

Quick check: growth on 786-0 renal, item "COCc1nc(NS(=O)(=O)c2ccc(N)cc2)nc(C)c1Br" ? 100

Then what about the molecule "COc1ccc(-c2nn(C(=O)NCCN(C)C)cc2-c2ccncc2)cc1Cl" ? 34.8

* * *

tested on: A498 renal; assay: NCI-60 one-dose screen, 48 h (100 = growth as untreated, 0 = no growth, -100 = all killed); details: 10 µM unless noted
The panel holds about 83,000 compounds, 20% with a hit somewhere; the sample as a whole holds those more often.
Is growth at least 90%? Then yes. If not, no.

Could you please find out whether "C=CC(=O)N1CN(C(=O)C=C)CN(C(=O)C=C)C1" has growth that meets 90% or exceeds it? yes

Then what about the molecule COc1cc(CN(CCC(O)N2CCCC2=O)Cc2ccc3c(c2)OCO3)cc(OC)c1OC (stereo not given) ? yes

Then what about the molecule COc1cccc(C2C(C#N)=C(N)Oc3cc4c(cc32)OCO4)c1 (stereo not given) ? no

Then what about the molecule "Nc1c(C(=O)Nc2ccccc2)sc2nc3c(cc12)C(=O)CCC3" ? no

* * *

system: CAKI-1 renal; assay: NCI-60 one-dose screen, 48 h; conditions: 10 µM unless noted
About 83,000 compounds went through this panel and 20% of them were active in at least one assay; those are over-represented in the sample as a whole. Calls of active or inactive are those of the source. How the source made its calls: active means growth percent below 10; inactive means the rest.
Pick one and only one: active, inactive

Cc1cc(O)ccc1Sc1ccccc1[N+](=O)[O-] ... inactive
COC(=O)c1ccc2c(c1)nc(-c1cc3ccccc3[nH]c1=O)n2-c1cc(C(C)(C)C)[nH]n1 ... inactive
O=C(C(=O)N1CCCC1)c1cn(CCCn2cc(C(=O)C(=O)N3CCCC3)c3cc(Br)ccc32)c2ccc(Br)cc12 ... inactive

Hi, sorry to bother you, what did the test record for "CN(C)c1nc(-c2cccs2)n2nc(-c3ccc(Cl)cc3)cc2n1" ? inactive

Then what about the compound "CS(=O)(=O)c1ccc(C(=O)Nc2ccc(Cl)c(-c3ccccn3)c2)c(Cl)c1" ? active

Then what about the compound "Cc1csc(N/N=C/c2ccncc2)n1" ? inactive

Then what about the compound "C/C(=N\NC(=O)CSc1nc2ccccc2c(=O)n1CCc1ccc(S(N)(=O)=O)cc1)c1ccc(Br)cc1" ? inactive

Then what about the compound COC(=O)C(Br)(C(=O)OC)C(Br)C(Br)C(Br)c1ccccc1 (stereo not drawn) ? active

Then what about the compound "C=CCOc1ccc2c(C)cc(=O)oc2c1" ? inactive

Then what about the compound "CCCCCCCCCCCCNC(=O)N[C@H](C(=O)N[C@H]1/C=C/CCNC(=O)/C=C/[C@H](C)NC1=O)C(C)C" ? inactive

Then what about the compound "COc1ccc(/C=N/NC(N)=S)c(OC)n1" ? inactive

Then what about the compound "COc1ccc(-c2ccc(-c3ccc(C(=N)N)s3)s2)cc1" ? active

Then what about the compound "COc1ccc(/C(C)=N/NC(=O)c2ccc(S(C)(=O)=O)cc2)cc1OC" ? inactive

Then what about the compound "CCCCCc1c(C)[nH]c(/C=C2\N=C(c3ccc[nH]3)C=C2Oc2ccc(OC)cc2)c1C" ? active
